- Tested on: SW 982 tumor spheroid viability
- assayMethodText: Anticancer human tumor SW 982 cell line growth inhibition;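 further: spheroids exposed to compound for 7 days before readout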
- condition: curve of first compound; second compound 0.0003 µM; spheroids with HUVEC and MSC
quantityMeasured: pIC50
pIC50 (log units): -log10 of the concentration in mol/L.

Request: pIC50 lookup needed for Cc1cc(C)c(CNC(=O)c2cc(-c3ccc(CN4CCOCC4)cc3)cc3c2cnn3C2CCCC2)c(=O)[nH]1 + COc1cc2c(cc1O)CCNC21CSC2c3c(OC(C)=O)c(C)c4c(c3C(COC1=O)N1C(O)C3Cc5cc(C)c(OC)c(O)c5C(C21)N3C)OCO4 , thanks.
Response: 5.00

Request: Reported pIC50 for CC(C)n1c(=O)n(C)c2cnc3cc(F)c(-c4ccc(OCCCN5CCCCC5)nc4)cc3c21 + COc1cc2c(cc1O)CCNC21CSC2c3c(OC(C)=O)c(C)c4c(c3C(COC1=O)N1C(O)C3Cc5cc(C)c(OC)c(O)c5C(C21)N3C)OCO4 : what is it?
Response: 5.61

Request: Look up pIC50 for this compound: O=C(c1cc(Cc2n[nH]c(=O)c3ccccc23)ccc1F)N1CCN(C(=O)C2CC2)CC1 + COc1cc2c(cc1O)CCNC21CSC2c3c(OC(C)=O)c(C)c4c(c3C(COC1=O)N1C(O)C3Cc5cc(C)c(OC)c(O)c5C(C21)N3C)OCO4
Response: 5.14

Request: Could you share which pIC50 value was measured for Cc1sc2c(c1C)C(c1ccc(Cl)cc1)=NC(CC(=O)Nc1ccc(O)cc1)c1nnc(C)n1-2 (stereo not given) + COc1cc2c(cc1O)CCNC21CSC2c3c(OC(C)=O)c(C)c4c(c3C(COC1=O)N1C(O)C3Cc5cc(C)c(OC)c(O)c5C(C21)N3C)OCO4 ?
Response: 6.32

Request: So what does the record say about pIC50 for Cn1ncnc1[C@H]1c2n[nH]c(=O)c3cc(F)cc(c23)N[C@@H]1c1ccc(F)cc1 + COc1cc2c(cc1O)CCNC21CSC2c3c(OC(C)=O)c(C)c4c(c3C(COC1=O)N1C(O)C3Cc5cc(C)c(OC)c(O)c5C(C21)N3C)OCO4 ?
Response: 5.74

Request: Requested read-out: pIC50. Entry: COc1ccc([C@@H](O)c2cc(-c3ncnc4cc(N5CCOCC5)ccc34)c(F)cc2Cl)nn1 + COc1cc2c(cc1O)CCNC21CSC2c3c(OC(C)=O)c(C)c4c(c3C(COC1=O)N1C(O)C3Cc5cc(C)c(OC)c(O)c5C(C21)N3C)OCO4
Response: 5.97

Request: Given CNCc1ccc(-c2cc(-c3nc(-c4ccc(S(=O)(=O)C(C)C)cc4)cnc3N)on2)cc1 + COc1cc2c(cc1O)CCNC21CSC2c3c(OC(C)=O)c(C)c4c(c3C(COC1=O)N1C(O)C3Cc5cc(C)c(OC)c(O)c5C(C21)N3C)OCO4 , state its recorded pIC50.
Response: 6.97

----------
- System: SW 982 tumor spheroid viability
- assayMethodText: Anticancer human tumor SW 982 cell line growth inhibition;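 further: spheroids exposed to compound for 7 days before readout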
- condition: second compound 0.03 µM; first compound 0.316 µM; stronger effect = lower value; spheroids with HUVEC and MSC
- Experimental: Multicellular complex tumor spheroid response to DNA repair inhibitors in combination with DNA-damaging drugs This study explores the anticancer activities of DNA-damaging drugs and inhibitors of DNA damage repair, both as single agents and in combinations. […] Twenty-six patient-derived or established malignant cell lines were evaluated representing sarcoma, melanoma, small cell lung cancer (SCLC), non-small cell lung cancer (NSCLC), as well as bladder, ovarian and pancreatic cancers. […]
What viability, T/C was measured for each of the following?
Reply numerically in %, unit not repeated.

Request: Which viability, T/C value is on record for CC(C)n1c(=O)n(C)c2cnc3cc(F)c(-c4ccc(OCCCN5CCCCC5)nc4)cc3c21 + CC[C@@]1(O)C(=O)OCc2c1cc1n(c2=O)Cc2cc3c(CN(C)C)c(O)ccc3nc2-1 ?
Response: 59.4

Request: Report viability, T/C for COc1cc(C)[nH]c(=O)c1CN1CCc2c(Cl)cc(C(OC)C3COC3)c(Cl)c2C1=O (stereo not drawn) + CC[C@@]1(O)C(=O)OCc2c1cc1n(c2=O)Cc2cc3c(CN(C)C)c(O)ccc3nc2-1 please.
Response: 70.8

Request: Given the molecule COc1ccc([C@@H](O)c2cc(-c3ncnc4cc(N5CCOCC5)ccc34)c(F)cc2Cl)nn1 + CC[C@@]1(O)C(=O)OCc2c1cc1n(c2=O)Cc2cc3c(CN(C)C)c(O)ccc3nc2-1 , what is its reported viability, T/C?
Response: 70.3

// provenance: PubChem BioAssay AID1845216
